Origin of the recorded values: patent US20190367619A1

Would you kindly list pEC50 for each of these binders?
TARGET OF ASSAY: T1, human galectin-10-His (recombinant human galectin-10 with TEV-cleavable N-terminal His-tag) (human)
T1 construct: SEC-MALLS: dimer in solution; also called Gal10-His; humanGal10-His
T1 chain: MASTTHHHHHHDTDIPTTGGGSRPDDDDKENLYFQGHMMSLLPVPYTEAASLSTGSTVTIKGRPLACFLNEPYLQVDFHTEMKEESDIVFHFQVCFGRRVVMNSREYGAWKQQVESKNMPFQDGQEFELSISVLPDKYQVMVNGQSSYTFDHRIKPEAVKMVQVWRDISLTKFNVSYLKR
ASSAY INFO: ELISA, mouse IgG1 on coated galectin-10-His (0.2 ug/mL)
Reminder that pEC50 is minus the log10 of a molar concentration.

Data request: Please report the recorded pEC50 for 6F06 mouse IgG1 (antibody, V domains shown, also called 6F06 mIgG1) VH: QVQLVESGGGLVQPGGSLRLSCAASEFTFSRYSMSWVRQAPGKGLEWVSTINSGGGSTSYVDSVKGRFTISRDNAKNTLYLQMNSLKPEDTAVYYCTKSQGGISFSTQYGMDYWGKGTLVTVSS VL: NFMLTQPSAVSVSLGQTARITCQGGNFGRYYANWYQQKPGQAPVLVIYKDSERPSGIPERFSGSSSGDTATLTISGAQAEDESDYYCQSGSVSDNAVFGGGTHLAVL .
Data returned: 10.10

Data request: Return reported pEC50; argument: 1D11 mouse IgG1 (antibody, V domains shown, VH on mouse IgG1 heavy chain constant domains (CH1-CH2-CH3), VL on mouse lambda light chain constant domain; also called 1D011; 1D11 mIgG1) VH: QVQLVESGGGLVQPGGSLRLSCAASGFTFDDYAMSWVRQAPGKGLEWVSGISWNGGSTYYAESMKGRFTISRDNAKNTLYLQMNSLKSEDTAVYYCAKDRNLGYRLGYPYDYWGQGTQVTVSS VL: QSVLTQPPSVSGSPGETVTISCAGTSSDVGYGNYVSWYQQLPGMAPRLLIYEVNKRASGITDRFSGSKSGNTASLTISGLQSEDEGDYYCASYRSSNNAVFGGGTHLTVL
Data returned: 10.00

Data request: Requested field: pEC50. Item: 2F09 mouse IgG1 (antibody, V domains shown, VH on mouse IgG1 heavy chain constant domains (CH1-CH2-CH3), VL on mouse lambda light chain constant domain; also called 2F09 mIgG1) VH: QVQVQESGPGLVKPSQTLSLTCTVSGGSITTNYFYWSWIRQSPGKGLEWIGAIAYSGRTYYSPSLKSRTSISRDTSNNQFTLQLSSVTPEDTAVYYCARGPKGLASYYDYWGQGTQVTVSS VL: SSALTQPSAVSVSLGQTARITCQGGNFGYYYVSWYQQKPGQAPVLVIYRDSGRPSGIPERFSGSSSGDTATLTISGAQAEDEADYYCQSGSSSDNTVFGGGTHLTVL
Data returned: 10.30
